- tested on: Melanocortin receptor 3 (Mus musculus, UniProt P33033)
- Sequence (P33033 whole entry): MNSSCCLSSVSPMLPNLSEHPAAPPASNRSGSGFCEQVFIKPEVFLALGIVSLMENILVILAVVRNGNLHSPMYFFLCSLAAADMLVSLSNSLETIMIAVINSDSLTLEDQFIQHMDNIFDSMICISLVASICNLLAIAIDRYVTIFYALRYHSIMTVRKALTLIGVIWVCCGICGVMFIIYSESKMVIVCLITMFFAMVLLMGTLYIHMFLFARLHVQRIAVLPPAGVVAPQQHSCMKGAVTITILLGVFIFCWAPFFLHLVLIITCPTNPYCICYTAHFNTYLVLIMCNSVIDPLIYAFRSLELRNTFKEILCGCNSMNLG
- method notes: Agonist activity at mouse melanocortin receptor 3 expressed in HEK293 cells assessed as increase in cAMP accumulation after 2 hrs by AlphaScreen assay
- Format: functional, cell-based
Non-standard residues stand in square brackets, D forms with d. Residues, ends and D or L forms follow the SMILES beside them.
experimental readout: EC50

{"compound": "N=C(N)NCCC[C@@H]1NC(=O)[C@@H]2CCCN2C(=O)[C@H]2CCCN2C(=O)[C@H](Cc2ccccc2)NC(=O)[C@H](CC(=O)O)NC(=O)[C@H](CC(N)=O)NC(=O)[C@H](Cc2ccccc2)NC(=O)[C@H](Cc2ccccc2)NC1=O (cyclo(RFFNDF[dP]P))", "tested on": "Melanocortin receptor 3 (Mus musculus, UniProt P33033)", "experimental readout": "EC50", "recorded value": "> 100 µM"}

Attention now turns to another entry.
Need EC50 of N=C(N)NCCC[C@@H]1NC(=O)[C@@H]2CCCN2C(=O)[C@H]2CCCN2C(=O)[C@H](Cc2ccccc2)NC(=O)CNC(=O)[C@H](CC(N)=O)NC(=O)[C@H](Cc2ccccc2)NC(=O)[C@H](Cc2ccccc2)NC1=O (cyclo(RFFNGF[dP]P)) , thanks.
> 100 µM
